Hey, just so you know, these numbers are from paper PMC5564600.

study.system: panel of 442 kinases (Homo sapiens, UniProt Q16512)
Construct: purchased Ambit Biosciences (scanMAXX KINOMEscan)
Sequence (Q16512 whole entry): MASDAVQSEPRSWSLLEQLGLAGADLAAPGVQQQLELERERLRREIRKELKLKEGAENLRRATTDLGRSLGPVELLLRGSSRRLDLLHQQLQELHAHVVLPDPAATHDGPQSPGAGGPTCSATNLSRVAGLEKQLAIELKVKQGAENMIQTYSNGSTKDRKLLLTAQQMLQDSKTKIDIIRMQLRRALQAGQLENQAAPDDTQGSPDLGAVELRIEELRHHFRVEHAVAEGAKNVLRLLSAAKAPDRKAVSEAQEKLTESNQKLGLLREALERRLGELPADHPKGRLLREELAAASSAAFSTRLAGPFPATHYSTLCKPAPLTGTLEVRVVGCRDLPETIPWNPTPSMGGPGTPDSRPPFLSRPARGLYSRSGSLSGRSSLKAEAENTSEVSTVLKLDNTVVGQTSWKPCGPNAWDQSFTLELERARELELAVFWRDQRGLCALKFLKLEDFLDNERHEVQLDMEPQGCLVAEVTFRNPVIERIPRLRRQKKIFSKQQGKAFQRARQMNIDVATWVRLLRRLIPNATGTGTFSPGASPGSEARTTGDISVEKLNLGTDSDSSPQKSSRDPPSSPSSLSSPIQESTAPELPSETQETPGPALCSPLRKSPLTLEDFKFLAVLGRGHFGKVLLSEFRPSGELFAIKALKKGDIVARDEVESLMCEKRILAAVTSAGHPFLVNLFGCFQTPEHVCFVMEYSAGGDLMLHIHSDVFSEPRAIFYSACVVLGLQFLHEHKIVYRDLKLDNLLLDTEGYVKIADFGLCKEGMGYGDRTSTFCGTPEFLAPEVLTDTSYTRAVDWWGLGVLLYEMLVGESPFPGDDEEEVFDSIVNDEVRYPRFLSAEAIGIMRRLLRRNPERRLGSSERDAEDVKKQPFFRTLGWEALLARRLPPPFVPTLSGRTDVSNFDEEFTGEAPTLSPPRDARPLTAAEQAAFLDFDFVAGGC
protocol.notes: biochemical
Format: binding
condition.info: kinase PKN1; 1 µM; read-out: PKN1 (% of control at 1 µM)
measure.name: remaining activity at 1 µM (%)
Use % as the unit, but write only the number.

# query: remaining activity at 1 µM of entry "Nc1cc(C(F)(F)F)c(-c2cc(N3CCOCC3)nc(N3CCOCC3)n2)cn1"
89

# query: remaining activity at 1 µM of entry "COc1ncc(-c2ccc3nccc(-c4ccnnc4)c3c2)cc1NS(=O)(=O)c1ccc(F)cc1F"
94

# query: remaining activity at 1 µM of entry "Cn1c(=O)n(-c2ccc(C(C)(C)C#N)cc2)c2c3cc(-c4cnc5ccccc5c4)ccc3ncc21"
100

Okay, now this molecule:
# query: remaining activity at 1 µM of entry "FC(F)c1nc2ccccc2n1-c1nc(N2CCOCC2)nc(N2CCOCC2)n1"
90

###

study.system: panel of 442 kinases (Homo sapiens, UniProt O15075)
Construct: purchased Ambit Biosciences (scanMAXX KINOMEscan)
Sequence (O15075 whole entry): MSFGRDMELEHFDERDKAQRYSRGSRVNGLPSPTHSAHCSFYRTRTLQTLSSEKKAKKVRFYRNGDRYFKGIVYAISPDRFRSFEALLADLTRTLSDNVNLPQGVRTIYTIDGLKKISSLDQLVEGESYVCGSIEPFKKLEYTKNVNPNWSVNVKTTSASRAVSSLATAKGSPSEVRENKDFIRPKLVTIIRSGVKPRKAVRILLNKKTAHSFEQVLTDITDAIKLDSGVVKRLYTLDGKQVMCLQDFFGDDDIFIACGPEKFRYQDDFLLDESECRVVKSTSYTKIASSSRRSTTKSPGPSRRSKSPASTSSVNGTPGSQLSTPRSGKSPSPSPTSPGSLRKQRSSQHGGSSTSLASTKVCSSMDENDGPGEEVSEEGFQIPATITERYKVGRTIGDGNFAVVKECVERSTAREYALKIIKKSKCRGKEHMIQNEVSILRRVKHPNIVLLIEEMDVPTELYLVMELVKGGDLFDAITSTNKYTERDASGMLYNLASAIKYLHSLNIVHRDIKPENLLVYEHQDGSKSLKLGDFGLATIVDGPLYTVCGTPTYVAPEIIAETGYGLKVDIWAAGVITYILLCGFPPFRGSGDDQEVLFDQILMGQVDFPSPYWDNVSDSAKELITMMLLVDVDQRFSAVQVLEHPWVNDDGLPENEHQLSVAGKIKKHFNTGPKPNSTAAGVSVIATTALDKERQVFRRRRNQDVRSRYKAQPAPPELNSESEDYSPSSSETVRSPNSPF
protocol.notes: biochemical
Format: binding
condition.info: DCAMKL1; 1 µM; read-out: % of control at 1 µM
measure.name: remaining activity at 1 µM (%)
Use % as the unit, but write only the number.

Consider the reported remaining activity at 1 µM for these compounds:
Given the entry "Nc1cc(C(F)(F)F)c(-c2cc(N3CCOCC3)nc(N3CCOCC3)n2)cn1" , what remaining activity at 1 µM was observed with panel of 442 kinases (Homo sapiens, UniProt O15075)?
100

Given the entry "COc1ncc(-c2ccc3nccc(-c4ccnnc4)c3c2)cc1NS(=O)(=O)c1ccc(F)cc1F" , what remaining activity at 1 µM was observed with panel of 442 kinases (Homo sapiens, UniProt O15075)?
92

Given the entry "Cn1c(=O)n(-c2ccc(C(C)(C)C#N)cc2)c2c3cc(-c4cnc5ccccc5c4)ccc3ncc21" , what remaining activity at 1 µM was observed with panel of 442 kinases (Homo sapiens, UniProt O15075)?
100

Okay, now this compound:
Given the entry "FC(F)c1nc2ccccc2n1-c1nc(N2CCOCC2)nc(N2CCOCC2)n1" , what remaining activity at 1 µM was observed with panel of 442 kinases (Homo sapiens, UniProt O15075)?
97

###

study.system: panel of 442 kinases (Homo sapiens, UniProt Q5S007)
Construct: purchased Ambit Biosciences (scanMAXX KINOMEscan)
Sequence (Q5S007 whole entry): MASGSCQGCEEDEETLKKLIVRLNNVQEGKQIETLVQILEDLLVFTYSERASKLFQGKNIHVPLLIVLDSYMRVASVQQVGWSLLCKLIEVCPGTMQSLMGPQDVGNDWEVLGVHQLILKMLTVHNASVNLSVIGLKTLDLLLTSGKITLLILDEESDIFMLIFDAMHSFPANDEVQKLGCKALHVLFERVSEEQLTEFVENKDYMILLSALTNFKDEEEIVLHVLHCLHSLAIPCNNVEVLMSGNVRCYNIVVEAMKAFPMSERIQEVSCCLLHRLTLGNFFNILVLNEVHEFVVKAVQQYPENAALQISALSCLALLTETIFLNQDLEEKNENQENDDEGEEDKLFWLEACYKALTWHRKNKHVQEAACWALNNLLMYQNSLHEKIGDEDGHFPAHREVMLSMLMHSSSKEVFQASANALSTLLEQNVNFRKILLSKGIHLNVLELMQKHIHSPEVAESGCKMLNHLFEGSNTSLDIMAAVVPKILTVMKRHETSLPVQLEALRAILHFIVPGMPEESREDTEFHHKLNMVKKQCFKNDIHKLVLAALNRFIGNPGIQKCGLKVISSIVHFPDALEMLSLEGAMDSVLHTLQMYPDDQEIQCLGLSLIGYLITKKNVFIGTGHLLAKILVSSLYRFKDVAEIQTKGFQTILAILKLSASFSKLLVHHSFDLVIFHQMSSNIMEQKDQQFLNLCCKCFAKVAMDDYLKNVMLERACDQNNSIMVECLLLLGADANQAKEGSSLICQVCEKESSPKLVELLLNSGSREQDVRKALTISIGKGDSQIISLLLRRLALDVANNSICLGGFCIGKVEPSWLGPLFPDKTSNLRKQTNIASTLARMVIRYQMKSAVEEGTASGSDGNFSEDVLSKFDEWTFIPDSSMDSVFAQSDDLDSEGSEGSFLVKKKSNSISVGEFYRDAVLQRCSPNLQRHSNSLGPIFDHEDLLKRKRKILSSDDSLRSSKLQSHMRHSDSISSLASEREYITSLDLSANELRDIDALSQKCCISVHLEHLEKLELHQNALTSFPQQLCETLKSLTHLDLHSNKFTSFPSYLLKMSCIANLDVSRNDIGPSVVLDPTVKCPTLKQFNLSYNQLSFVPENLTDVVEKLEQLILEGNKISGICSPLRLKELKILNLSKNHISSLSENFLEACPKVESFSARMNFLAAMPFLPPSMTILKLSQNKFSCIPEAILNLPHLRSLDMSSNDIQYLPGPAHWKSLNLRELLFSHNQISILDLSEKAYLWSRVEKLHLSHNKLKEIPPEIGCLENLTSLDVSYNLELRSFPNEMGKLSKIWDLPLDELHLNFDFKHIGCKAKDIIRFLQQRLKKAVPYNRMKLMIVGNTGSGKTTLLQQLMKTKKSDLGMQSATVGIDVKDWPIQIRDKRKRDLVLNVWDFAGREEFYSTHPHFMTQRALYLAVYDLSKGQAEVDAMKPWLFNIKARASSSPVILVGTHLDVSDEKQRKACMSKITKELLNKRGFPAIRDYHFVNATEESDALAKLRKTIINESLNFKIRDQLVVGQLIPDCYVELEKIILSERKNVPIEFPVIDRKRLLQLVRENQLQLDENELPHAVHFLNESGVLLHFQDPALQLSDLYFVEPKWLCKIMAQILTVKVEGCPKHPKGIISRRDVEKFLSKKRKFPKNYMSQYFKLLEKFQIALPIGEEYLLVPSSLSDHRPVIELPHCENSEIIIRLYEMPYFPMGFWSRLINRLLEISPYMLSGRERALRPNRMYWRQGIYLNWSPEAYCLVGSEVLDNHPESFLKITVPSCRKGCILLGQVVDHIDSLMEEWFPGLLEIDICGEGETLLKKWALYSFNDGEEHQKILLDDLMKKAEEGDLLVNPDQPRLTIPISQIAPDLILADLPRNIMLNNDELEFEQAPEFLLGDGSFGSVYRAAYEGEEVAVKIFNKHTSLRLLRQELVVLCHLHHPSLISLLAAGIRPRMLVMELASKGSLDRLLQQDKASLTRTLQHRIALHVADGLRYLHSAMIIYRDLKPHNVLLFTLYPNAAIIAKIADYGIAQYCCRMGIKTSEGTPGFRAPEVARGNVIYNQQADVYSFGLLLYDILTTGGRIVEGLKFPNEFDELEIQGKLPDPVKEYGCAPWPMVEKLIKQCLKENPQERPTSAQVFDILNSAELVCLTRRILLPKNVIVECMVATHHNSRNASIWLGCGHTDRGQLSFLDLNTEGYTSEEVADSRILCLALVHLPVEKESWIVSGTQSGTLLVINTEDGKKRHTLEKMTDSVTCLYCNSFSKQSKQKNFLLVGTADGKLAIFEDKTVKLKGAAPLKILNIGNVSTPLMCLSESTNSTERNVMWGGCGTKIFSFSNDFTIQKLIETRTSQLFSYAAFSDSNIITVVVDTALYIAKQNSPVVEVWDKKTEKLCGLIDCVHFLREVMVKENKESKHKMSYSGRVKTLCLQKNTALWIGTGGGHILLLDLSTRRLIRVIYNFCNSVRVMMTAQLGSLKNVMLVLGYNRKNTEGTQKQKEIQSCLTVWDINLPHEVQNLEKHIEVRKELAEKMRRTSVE
protocol.notes: biochemical
Type: binding
condition.info: kinase LRRK2; 1 µM; read-out: % of control at 1 µM
remaining activity at 1 µM listing for selected compounds.
Use % as the unit, but write only the number.

# query: remaining activity at 1 µM of entry FC(F)c1nc2ccccc2n1-c1nc(N2CCOCC2)nc(N2CCOCC2)n1 [ZSTK474]
100

# query: remaining activity at 1 µM of entry Nc1cc(C(F)(F)F)c(-c2cc(N3CCOCC3)nc(N3CCOCC3)n2)cn1 [Buparlisib]
80

Further cases:
# query: remaining activity at 1 µM of entry Cn1c(=O)n(-c2ccc(C(C)(C)C#N)cc2)c2c3cc(-c4cnc5ccccc5c4)ccc3ncc21 [Dactolisib]
52

# query: remaining activity at 1 µM of entry COc1ncc(-c2ccc3nccc(-c4ccnnc4)c3c2)cc1NS(=O)(=O)c1ccc(F)cc1F [Omipalisib]
96
